Value source: paper PMC6522510

# Tested on: MV4-11
# Set-up: species or system AML cell lines (8); Primary HTS, single concentration about 10 uM, Cell Titer Glo viability; log10 luminescence, per cent inhibition relative to cycloheximide control
# CONDITION_NOTES: 72 h, relative to cycloheximide control, log10 luminescence; inhibitor
Structures can show the parent of a compound that is named as a salt.
Property: MV4-11 %inh; scope: individual compounds
Please reply with the bare figure in % and do not write the unit itself.

Here's what some known entries look like.
> print(dat)
                                   compound  experimental.system  reported.property  recorded.measurement
1       COc1cc2ncnc(Nc3ccc(C)c(O)c3)c2cc1OC               MV4-11        MV4-11 %inh                0.6335
2  COc1ccccc1CN=C1NC(=O)/C(=C/c2ccc3ncccc3c2)S1               MV4-11        MV4-11 %inh                 3.855
3  Cc1ccc(C)c(C2=C(c3cn(C)c4ccccc34)C(=O)NC2=O)c1               MV4-11        MV4-11 %inh                 2.862
4  CCOC(=O)C(C)Oc1cccc2c(=O)n(CC(=O)Nc3ccc4c(c3)OCCO4)ccc12 (centres unmarked)               MV4-11        MV4-11 %inh                 2.255
5  N=C(N)NCCN1CCCCCCC1 [SJ000285779-4, GUANETHIDINE SULFATE]               MV4-11        MV4-11 %inh                -2.801

Exam item: Need MV4-11 %inh, item `Cn1cc(C2=C(Sc3ccccc3)C(=O)NC2=O)c2ccccc21`
Marked response: 3.129

Exam item: Fill in: MV4-11 %inh of `CCn1c(-c2nonc2N)nc2ccncc21` is ___
Marked response: -1.945

Exam item: Look up MV4-11 %inh: `CCn1cc(C(=O)O)c(=O)c2cc(F)c(N3CCNCC3)nc21`
Marked response: 40.28

Exam item: Give its MV4-11 %inh value. Item: `CCS(=O)(=O)c1ccc(OC)c(Nc2ncc(-c3cccc(F)c3)o2)c1`
Marked response: 41.43

Exam item: Would you mind telling me what MV4-11 %inh value was observed for `CCN(CC)S(=O)(=O)c1ccc(OC)c(Nc2ncc(-c3ccccc3)o2)c1` ?
Marked response: 74.67

Exam item: Please report the recorded MV4-11 %inh for `OC(Cn1cncn1)(Cn1cncn1)c1ccc(F)cc1F` .
Marked response: 0.2312

----------
# Test system: MV4-11
# Design: species or system AML cell lines (8); Primary HTS, single concentration about 10 uM, Cell Titer Glo viability; log10 luminescence, per cent inhibition relative to cycloheximide control
# CONDITION_NOTES: 72 h, relative to cycloheximide control, log10 luminescence; inhibitor
Where a name gives a salt, the structure may show the parent alone.
REPORTED_PROPERTY: MV4-11 %inh (%)
Write the answer as a number in %, unit excluded.

COMPOUND	RECORDED_MEASUREMENT
Cn1cc(C2=C(c3c4n(c5ccccc35)CCN(C(N)=S)C4)C(=O)NC2=O)c2ccccc21	52.04
O=C1NC(=NCCCc2ccccc2)S/C1=C\c1ccc2ncccc2c1	18.37
C/C(O)=C(\C#N)C(=O)Nc1ccc(C(F)(F)F)cc1 [SJ000556684-2, TERIFLUNOMIDE]	2.233
Cn1cc(C2=C(n3ccc4ccccc43)C(=O)NC2=O)c2ccccc21	-2.255
CC(=O)N[C@@H](Cc1ccc(OP(=O)(O)O)cc1)C(=O)N[C@H]1CCC(=O)N2CCC[C@@H](C(=O)NCc3cccc4ccccc34)N2C1=O	0.5498
COc1cc[nH]c1/C=C1\C(=O)Nc2ccc(F)c(C#C[C@@H](O)[C@@H](N)[C@@H](C)O)c21	92.6
Cn1cc(C2=C(c3cn(CCCO)c4ccccc34)C(=O)NC2=O)c2ccccc21	37.67
COc1cc[nH]c1/C=C1\C(=O)Nc2ccc(F)c(I)c21	2.865
NS(=O)(=O)c1ccc(-c2cc3ccncc3cc2OCc2ccccc2)cc1	-2.181
CCOC(=O)c1ncn2c1CN(C)C(=O)c1cc(F)ccc1-2	0.7722

Exam item: Fill in the blank: the reported MV4-11 %inh of `c1cnn2ncc(-c3ccnc(NCCCN4CCOCC4)n3)c2c1` is ____.
Marked response: 15.28

Exam item: Could you tell me which MV4-11 %inh is on file for CCOC(=O)OC(C)OC(=O)[C@@H]1N2C(=O)[C@@H](NC(=O)[C@H](N)c3ccccc3)[C@H]2SC1(C)C (stereo partly drawn) [SJ000285946-4, BACAMPICILLIN HYDROCHLORIDE] ?
Marked response: -1.634

Exam item: State the recorded MV4-11 %inh for this entry: CC(C(=O)O)c1ccc(C(=O)c2cccs2)cc1 (stereo not drawn)
Marked response: -0.1438

Exam item: Tell me the measured MV4-11 %inh of `CN1CCN(C(=O)c2ccc(NC(=O)Nc3ccc(N(C)c4ccnc(Nc5ccc(CS(C)(=O)=O)cc5)n4)cc3)cc2)CC1` , please.
Marked response: 82.16

Exam item: Return reported MV4-11 %inh; argument: `Cn1c(=O)c(Oc2ccccc2F)cc2cnc(NC3CCOCC3)nc21`
Marked response: 0.7758
